Data origin, for the record: ChEMBL document CHEMBL3988442

- System: Wolbachia pipientis
- Protocol: Anti-Wolbachia Cell-Based Screen
- Type: functional
- Design: scale not given: in the data most compounds retested in dose-response had high values
- Measurement parameters: 5 µM
Among all 48,000 compounds or so, about 13,000 (27%) showed an effect of 50% or more. Some of the results follow.
Assign labels as follows, please: MET for Percent Effect below 10%; NOT MET for Percent Effect equal to or exceeding 10%.

Examples with answers:
{"Compound": "CN1C(=O)C(C)(C)COc2cc(NS(=O)(=O)c3ccccc3F)ccc21", "Tested on": "Wolbachia pipientis", "Assigned class": "NOT MET"}
{"Compound": "CNCC(=O)N1CCC(c2ccnc(Nc3ccc(C)cn3)n2)C1.Cl (configuration not stated)", "Tested on": "Wolbachia pipientis", "Assigned class": "MET"}
{"Compound": "Cc1[nH]c2c(F)cccc2c1CC(=O)NCCCNc1cccnc1", "Tested on": "Wolbachia pipientis", "Assigned class": "NOT MET"}
{"Compound": "Cc1nn(C)c(N(C)C)c1CNC1CCc2c(F)cccc21.Cl (configuration not stated)", "Tested on": "Wolbachia pipientis", "Assigned class": "MET"}
{"Compound": "COc1c(CNC2CCc3ccccc32)c(C)nn1C (configuration not stated)", "Tested on": "Wolbachia pipientis", "Assigned class": "NOT MET"}

Q: In the record for CC(C#N)NS(=O)(=O)c1cccc(C(C)C)c1 (configuration not stated) , is Percent Effect less than 10%?
Result: MET

Q: In the record for CN1CCN(Cc2ccc(Cl)cc2)CC1C(=O)O (configuration not stated) , is Percent Effect less than 10%?
Result: NOT MET

Q: In the record for `Cn1ccc2c(cnc3nc(-c4ccncc4)nn32)c1=O` , is Percent Effect less than 10%?
Result: NOT MET

###

- Tested on: Wolbachia pipientis
- Protocol: Anti-Wolbachia Cell-Based Screen
- Type: functional
- Parameters: scale not given: in the data most compounds retested in dose-response had high values
- Measurement parameters: 5 µM
Screen size: about 48,000 compounds; about 13,000 (27%) showed an effect of 50% or more. The list shows a part of the results.
Please provide measured Percent Effect for the entries that follow.
Numbers only, in %.

{"Compound": "COc1cc(CC(=O)Nc2cccc(C(=O)N(C)C)n2)ccc1C", "Tested on": "Wolbachia pipientis", "Property label": "Percent Effect", "Display unit": "%", "Quantitative result": -9.433}
{"Compound": "Cc1cc2n(n1)CC(CNCc1cnn(C)c1)CN2 (stereo not given)", "Tested on": "Wolbachia pipientis", "Property label": "Percent Effect", "Display unit": "%", "Quantitative result": -3.792}

Each compound below has a reported value. Please supply its Percent Effect.
1. O=C(NCc1nnc2n1CCCC2)N1CCc2sccc2C1
2. CC(C)NC(=O)C1CCN(C(C)C(=O)N2CCc3sccc3C2)CC1 (stereo not given)
3. Cc1ccsc1CCNC(=O)C1(Oc2cccnc2C)CCNCC1
4. Cc1cc2n(n1)CC(CNCc1ccc(OCC3CC3)nc1)CN2 (stereo not given)

Result:
[127.9, -8.464, 14.81, 93.19]

Each compound below has a reported value. Please supply its Percent Effect.
1. O=C(NCc1cccnc1)[C@@H]1C[C@H]2[C@H](CCN2c2ncc(F)cn2)O1.O=C(O)C(F)(F)F.O=C(O)C(F)(F)F
2. CCc1nc(C)c([C@H]2CN(C)C[C@@H]2C(=O)NCc2ccccn2)[nH]1

Result:
-1.497
-14.52

Each compound below has a reported value. Please supply its Percent Effect.
1. CCn1nc(C(C)C)cc1C(=O)NCc1nc2ccc(OC)cc2[nH]1
2. CC(NCc1nnc2n1CCCC2)C(=O)N1CCc2sccc2C1 (stereo not given)
3. O=C(NCc1nnc2n1CCC2)N1CCc2sccc2C1
4. Cc1ccc(NCCCNC(=O)C2CC3(CCNCC3)CN2C)nc1 (stereo not given)
5. COc1cc(C)c(C(C)NC(=O)c2cccnc2N(C)C)cc1OC (stereo not given)
6. Nc1cc(-c2cccc3ccnn23)ccn1
7. COC(=O)c1ccoc1CN(C)CC(=O)N(C)C
8. COc1ccc2nc(CNC(=O)c3cc(C(C)C)on3)[nH]c2c1

Result:
5.154
124.2
90.24
-3.217
0.4558
-7.377
115.3
-7.42
